TEST SYSTEM: T1, human Sdc2 (human, UniProt P34741 19-144, limits assumed)
T1 construct: Antigen of the Octet tandem binning, loaded on biosensors at 100 nM; also called huSdc2; hSdc2
T1 sequence (P34741 19-144 limits assumed): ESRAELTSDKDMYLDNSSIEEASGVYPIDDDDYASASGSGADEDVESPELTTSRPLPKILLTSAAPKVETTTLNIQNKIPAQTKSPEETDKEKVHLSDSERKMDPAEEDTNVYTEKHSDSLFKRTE
ASSAY: Octet tandem binning; saturating Ab m6 19838-20H19-AA (marked non-binding ligand)
MEASURED PROPERTY: raw competing-Ab binding signal

| BINDER | MEASUREMENT |
| --- | --- |
| R4M-P1-A10 (antibody, human IgG1, kappa, V domains shown) VH: EVQLVETGGGVVQPGRSLRLSCAASGFTFSSYAMHWVRQAPGKGLEWVAVISYDGSNKYYADSVKGRFTISRDNSKNTLYLQMNSLRAEDTAVYYCARDRGWADAFDIWGQGTMVTVSS VL: QAGLTQPPSVSKGLRQTATLTCTGNSNNVGYQGAVWLLQYQGHPPKVLSNRNNDRPSGISERLSASRSGNTASLTITGLQPEDEGDYFCAAWDGSLRGWVFGGGTKLTVLR | 0.32 |

Input line: Name the recorded raw competing-Ab binding signal for 6-N03-A (antibody, mouse IgG1, kappa, V domains shown) VH: EVQLVESGGGLVKPGGSLKLSCEASGITFSNYVMSWVRQTPEKRLEWVATISDGGSYTYYPDNVKGRFTISRDNAKNNLYLQMSHLKSEDTAMYYCVRDRYDYDGRVYAMDYWGQGTSVTVSS VL: DVVMTQTPLSLPVSLGDQASISCRSSQSLVHSNGDTYLHWYLQKPGQSPKLLIYKVSNRFSGVPDRFSGSGSGTDFTLKITRVEAEDLGVYFCSQSTHVPWTFGGGTKLEIKR .
Output line: 0.487

Input line: Name the recorded raw competing-Ab binding signal for 19838-6-N03-A (antibody, IgG1, V domains shown) VH: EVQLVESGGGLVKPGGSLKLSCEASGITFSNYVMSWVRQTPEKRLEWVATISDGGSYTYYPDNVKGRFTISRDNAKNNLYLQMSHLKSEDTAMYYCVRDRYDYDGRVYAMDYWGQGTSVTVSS VL: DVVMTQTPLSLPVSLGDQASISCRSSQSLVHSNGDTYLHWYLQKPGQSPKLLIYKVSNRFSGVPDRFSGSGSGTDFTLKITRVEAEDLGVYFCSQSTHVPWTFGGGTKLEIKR .
Output line: 0.501
